Test system: Candida albicans
Experiment: Antifungal activity against Candida albicans assessed as growth inhibition at 1 mg/mL after 48 hrs by […] method
Assay type: functional
Conditions: read-out: DIZ
property-label: zone of inhibition at 1000 µg/mL (mm)
Give bare numbers, in mm.

Query: May I ask what zone of inhibition at 1000 µg/mL has been recorded for C/C(=N\N1C(=O)C(C#N)C=C1c1ccccc1)c1cc2c(ccc3ccccc32)oc1=O (configuration not stated) ?
Response: 13

Query: May I ask what zone of inhibition at 1000 µg/mL has been recorded for C/C(=N\NC(=O)c1cc2c(ccc3ccccc32)oc1=O)c1cc2c(ccc3ccccc32)oc1=O ?
Response: 20

Query: May I ask what zone of inhibition at 1000 µg/mL has been recorded for C/C(=N\NC(=O)c1sc(N)c(C#N)c1N)c1cc2c(ccc3ccccc32)oc1=O ?
Response: 20

Here are 3 molecules. What values of zone of inhibition at 1000 µg/mL were reported for them?
1. COc1ccc(OC)c(-c2c(C#N)c(N)n(/N=C(\C)c3cc4c(ccc5ccccc54)oc3=O)c(=O)c2C#N)c1
2. C/C(=N\n1c(N)c(C#N)c(-c2ccc(F)cc2)c(C#N)c1=O)c1cc2c(ccc3ccccc32)oc1=O
3. C/C(=N\NC(=O)/C(C#N)=N/Nc1ccc(C)cc1)c1cc2c(ccc3ccccc32)oc1=O

Response:
[18, 10, 21]

Here are 4 molecules. What values of zone of inhibition at 1000 µg/mL were reported for them?
1. C/C(=N\NC(=O)c1sc(=S)n(-c2ccccc2)c1N)c1cc2c(ccc3ccccc32)oc1=O
2. C/C(=N\n1c(O)c(C#N)c(-c2cccc(O)c2)c(C#N)c1=O)c1cc2c(ccc3ccccc32)oc1=O
3. C/C(=N\NC(=O)/C(C#N)=C/N(C)C)c1cc2c(ccc3ccccc32)oc1=O
4. C/C(=N\NC(=O)/C(C#N)=C/c1cccnc1)c1cc2c(ccc3ccccc32)oc1=O

Response:
[15, 19, 7, 19]
